assay: yeast display, Sf9 membrane polyspecificity reagent, FACS + sequencing; frameworks hold sequencing errors
readout.name: polyreactivity (PSR sort gate)

// below: answered sequences
>>> value_observed("QLQLVESGGGLVQAGGSLRLSCAASGNTYFWYAMGWYRQAPGKERELVAAITSGGSTTYADSVKGRFTISRHNGMNTVYLQMNSLKPEDTAVYYCAQYTRDIFAVTFYEGEDYWGQGSQVTVSS")
"low polyreactivity"
>>> value_observed("QVQLVESGGGLVQAGGSLRLSCAASGIIFYVYAMGWYRQAPVKERELVAAISDTAGDTYYADSVKGRFTISRDNAKNTVYLQMNSLKPEDTAVYYCATDWFSYRGGIFDSWGQGTQVTVSS")
"low polyreactivity"
>>> value_observed("QVLLQESGGGLVLAGGSLRLGCAASGTISPAYYMGRYHQAPGKEREFVAAITYGTNTYYADSVKGRFTISRDNAKYTVYLQMHSLKPEDTAVYYCSATAGYNGAHDYWGQGTQVTVSS")
"low polyreactivity"
>>> value_observed("QVQLVESGGGLVQAGGSLRLSCAASGYIFNKYVMGWYRQAPGKERELVAAISASGGSTYYADSVKGRFTISRDNAKNTVYLQMNSLKPEDTAVYYCAATLYRRMDYWGQGTQVTVSS")
"high polyreactivity"

Q. Could you share which polyreactivity (PSR sort gate) value was measured for `QVQLEESGGGLVQAGGSLRLSCAASGSIFRGYAMGWYRQAPGKERELVAAITWGGGSTYADSVKGRFTISRDNAKNTVYLQMNSLKPEDTAVYYCAARYVSRYYVYRGFEYWGQGTQVTVSS` ?
A. high polyreactivity

Q. Form field: reported polyreactivity (PSR sort gate) of `QVQLVESVGGLVQAGGSLRLSCAASGRIFRSYTMGWYREATGKERELVAGIRASGGSTYYADSVKGRFTISRDNAKNTVYLQMNSVKPEDTAVYYCAARRYTTFGIRDYWGQGTQVTVSS`
A. high polyreactivity

====

test: yeast display, Sf9 membrane polyspecificity reagent, FACS + sequencing; frameworks hold sequencing errors
readout.name: polyreactivity (PSR sort gate)

The cases that follow already have their polyreactivity (PSR sort gate) on record.
>>> value_observed("QVQLVESGGGLVQAGGSLRLSCAASGRTIASYAMGWYRQAPGKERELVAAITSGGSTYYADSVKGRFTISRDNAKNTVYLQINSLKPEDTAVYYCARKHAIWRGYDYWGQGNQVTVSS")
"low polyreactivity"
>>> value_observed("QVQLVDSGGGLVQAGGSLRLSCAASGRTFGYYAMGWYRQAPGKERELVAAISWRGTSTYYADSVKGRFTISRDNAKNTVYLQMNSLKPEDTAVYYCAVGRTVAHRFIAGDYWGQGTQVTVSS")
"high polyreactivity"
>>> value_observed("QVQLVESGGGLVQAGGSLRLSCAASGSIFIYYAMGWYRQAPGKQRELVAGINFNGGSTYYADSVKGRFTISRDNAMYTVYVQMNSLKPEDTAVYYCAADELWWTYWDFVTNWYQRDYWGQGTQVTVSS")
"low polyreactivity"
>>> value_observed("QVQLVESGGGLVQAGGSLRLSCAASGRTFARYAMGWYRPAPGKERELVASITRTGGSTYYADSVKGRFTISRDNAKNTVYFQLNSLKPEDTAVYDCATQSWKVRSKMDYWGQGTQVTVSS")
"high polyreactivity"
>>> value_observed("QVQLVESGGGLVQAGGSLRLRCAASGRTFRYYAMGWYRQAPGKEREVVAAITRSGGSTYYADSVKGRFTISRDNAKNTVYLQMNSLKPEDTAVYYCAASRFTSYGIDYDYCGQGTQVTVSS")
"high polyreactivity"

Q. What does the data say about its polyreactivity (PSR sort gate)? Entry: `HVQLVESGGGLVQAGGSLRLSCAASGITLVRYAMGWFRPAPGKERELVAAISSSGGSTYYADSVKGRFTISRDNAKNTVYLQMNSLQPEDTAVYYCNAYVHSRRVEFNYWGQGTQVTVSS`
A. high polyreactivity

Q. Consider the sequence shown here: `QVQLVESGGGLVQAGGSLRLSCAASGSIFPFYAMGWYRQAPGKERELVAAISSRGGSTYYADSVKGRFTISRDNAKNTVYLQMNSLKPEDTAVYYCAARDYSIKVRLGYWGQGTQVTVSS` What is its recorded polyreactivity (PSR sort gate)?
A. low polyreactivity

Q. So what's the measured polyreactivity (PSR sort gate) for this one? `QDLLVESGGGLVQAGGSLRLSCAASGYTFGNNAMGWYRQAPGKERELVATISGGGRTKYADSVKGRFTISRDNAKNTVYLQMYSLKPEDTAVYYCNVVQTYYRGSYIYIKYGYWGQGTQVTVSS`
A. high polyreactivity

Q. Reported polyreactivity (PSR sort gate), sequence `QVQLVESGGGLVQAGGSLRLSCAASGRIFDWNTMGRYRQAPGKERELVAAISYEGSTYYADSVKGRFTISRDNAKNTVYLQMNSLKPEDTAVFYCNAYPLTQYFAQGYDYWGQGTQVTVSS` : ____
A. low polyreactivity

Q. Would you kindly share the measured polyreactivity (PSR sort gate) for `QVQLVESGGGLVQAGGSLRVSCAASGSNFPRYAMGWYRQAPGKERELVAAISGRGGSTYYADSVKGRFTISRDNAKNTVYLQMNSLKPEDTAVYYCNAVGHTSIRRALDILDYWGQGTQVTVSS` ?
A. high polyreactivity

Q. Form field: reported polyreactivity (PSR sort gate) of `QVQLVESGGGLVQAGGSLRLSCAATGRIISFYVMGWYRQAPGKERELVAAISLSGGSTYYADSVKGRFTNSRDNAKNTVFLQMNCLKPEDTAVYYCYAVLYARQRERWARYDYWGQGTQVTVSS`
A. high polyreactivity

Q. Given the sequence `QVQLVESGGGLVQAGGSLRLSCAASGSIFDVYTMGWSRQAPGKERELVAAISKRSGRTYYADSVKGRFTISRDNAKNTVYLQMNSLKPEDTAVYYCAARGYPTTAVTYDYWGQGTQVTVSS` , what is its reported polyreactivity (PSR sort gate)?
A. low polyreactivity

====

assay: yeast display, Sf9 membrane polyspecificity reagent, FACS + sequencing; frameworks hold sequencing errors
readout.name: polyreactivity (PSR sort gate)

>>> value_observed("QVQLVESGGGLVQAGGSLRLSCAACGFIFYINTMGWYRQAPGKERELVAAISQSGVGTSYADSVKGRFTISRDNAKNTVYLQMNSLKPEDTAVYDCATDFARSDVVDRFAYWRQGTQVTVSS")
"low polyreactivity"
>>> value_observed("QDHLVESGGGLVQAGGSLRLSCAASGFLFSQNVMGWYRQAPGKERELVAAISSGSRTYYADSVKGRFTISRDNAKNTVYLQMISLKPEDTAVYYCATDARVGGYVSEGDYWGLGTQVTVSS")
"low polyreactivity"
>>> value_observed("QVQLEESGGGLVQAGGSLRLSCAASGIFSRYAMGWDRQAPGKERELVAAISSRGSTYYADSVKGRFTISRDNAKYTVYLQLNSMKPEDTGVYYCAATVGRGKLDYWGQGTQVNVSS")
"high polyreactivity"
>>> value_observed("QVQLVESGGGLVQAGGSLRLSCAASGSIFDLIAMGWYRQAPGKERELVAAISSGGGTYYADSVKGRFTISRDNAKNTVYLQMNSLKPEDTAVYYCNRVTRWTYNYWGQGTQVTVSS")
"high polyreactivity"
>>> value_observed("QVQLVESGGGLLQAGGSLRLSCAASGMGWYRQAPGKERELVAAISWNGGSTYYADSVKGRFTISRDNAKNTVYLQMNSLKPEDTAVYYCAADYSTVASSLYLDSWGQGTQVTVSS")
"low polyreactivity"

Next, consider the following sequence.
Q. Can you share its polyreactivity (PSR sort gate)? I mean this sequence: `QVQLVESGGGLVQAGGSLRLSCASSGITFSFYVMGWYRQAPGKERELVAAISRGGSTYYADSVKGRFTISRDNANNTVYLQMNSLKPEDSAVYYCAAVRLSRVYYWGQGTQVTVSS`
A. high polyreactivity

====

experiment: yeast display, Sf9 membrane polyspecificity reagent, FACS + sequencing; frameworks hold sequencing errors
readout.name: polyreactivity (PSR sort gate)

Please review the following examples before continuing.
>>> value_observed("QVQLVESGGGLVQAGGSLRLSCAASGSTLWGYVMGWYRQAPGKERELVAVISKSGGSTYYADSVKGRFTISRDNANNTVYLQMNSLKPEDTAVYYCATRWPYRSDWGQGTQVTVSS")
"high polyreactivity"
>>> value_observed("QVQLVESGGVLVQAGGSLRLSCAASGSTFSWYAMGWYRQAPGKERELFAGITRSDGSTYYADSVKGRFTNSRDNAKNNVYLQMNSLKPEDTAVYYCAADDYIIRYGTNVDYWGQGTQVTVSS")
"low polyreactivity"
>>> value_observed("QVQLVESGGGLVLAGGSLRLSCAASGRIFSYYAMGWYRQAPGQERELVAAISWNGGSTYYADSVKGRFTISRDNAKNTVYLQMNSLKPEDTAVYYCAVLPHYEYDYWGQGTQVTVSS")
"high polyreactivity"
>>> value_observed("QVQLVESGGALVQAGGSLRLSCAASGFIFSYYVMGWYRQAPGKERELVAAITTSGDSTYYADSVKGRFTISRDNAKNTVYLQMNSLKPEDTAVYYCAADIYYETIWHYGYWGQGTQVTVSS")
"high polyreactivity"
>>> value_observed("QVQLVESGGGLDQAGGSLRLTCAASGRTIGSYAMGWYRQAPGKERELVAAISYSGGSTYYADSVKGRFTISRDNAKNTVYLQMNSLKPEDTAVYYCAKSWRYSIIQSYRAGYNYWGQGTQVTVSS")
"high polyreactivity"
>>> value_observed("PVQLVESGGGLVQAGGSLRLSCAASGRIFKPYAMGWYRQAPGKERELVAAISGSGTRTYYADSVKGRFTISRANAKNTVYLQMNSLKPEDTAVYFCAAAYYSTYRNRMDYWGQGTQVTVSS")
"high polyreactivity"
>>> value_observed("QVQLVESGGGLVQAGGSLRLSCAASGRIFATNAMGWYRQAPGKERELVAIITRSAGRTYYADSVKGRFTISRDKAKNTVYLQMNSLKPEDTAVYYCNTVPRPFDRYGYWGQGTQVTVSS")
"low polyreactivity"
>>> value_observed("QVQHVESGGGLVQAGGSLRLSCAASGSIISSYAMGRYRQAPGKERELVASISRRGGSTYYADSVKGRFTISRDNAKNTVSLQMNSLKPEDTAVYYCYPSCGPYRYYYCGQGTQVTVSS")
"low polyreactivity"
>>> value_observed("QVQLLESGGGLVQAGGSLRLSCAASGSIFYYYTMGWYRQAPGKETELVAAISRGGSTNYADSVKGRFTISRDNAKNTVYLQMNSLKPEDTAVYYCAADRLSGRYAYRFDYWGQGTQVTVSS")
"low polyreactivity"

Now turn to the next sequence.
Q. // polyreactivity (PSR sort gate) lookup, key: `QVQLVESGGGLVQAGGSLRLSCAASGNTFYPYAMGWYRQAPGKERELVAAITSSGGSTYYADSVNGRFTISRDNAKNTVYLQMNSLKPEDTAVYYCAAYIYFLGMDYWGQGTQVTVSS`
A. low polyreactivity
